// data source = patent US20030068675

# Tested System: T1, ZFP SBS#488 (synthetic)
# T1 chain: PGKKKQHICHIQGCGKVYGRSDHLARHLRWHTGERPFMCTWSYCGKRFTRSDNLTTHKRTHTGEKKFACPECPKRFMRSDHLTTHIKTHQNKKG
# Test Description: EMSA
# Condition Notes: tags: MBP fusion
Readout Label: Kd (nM)

>>> observed_result("TGGTAGGGGG (dsDNA) DNA 1: TGGTAGGGGG DNA 2: CCCCCTACCA")
35
